All figures here come from patent US20240067734A1.

- test_system: T1, di cyNKG2D ECD Fc avi (cynomolgus, biotinylated at the avi-tag)
- T1 construct: Dimeric fusion of cynomolgus NKG2D ECD to the C-terminus of an avi-tagged human IgG1 Fc; also called recombinant cynomolgus NKG2D
- T1 sequence (chain, as listed by the source limits assumed): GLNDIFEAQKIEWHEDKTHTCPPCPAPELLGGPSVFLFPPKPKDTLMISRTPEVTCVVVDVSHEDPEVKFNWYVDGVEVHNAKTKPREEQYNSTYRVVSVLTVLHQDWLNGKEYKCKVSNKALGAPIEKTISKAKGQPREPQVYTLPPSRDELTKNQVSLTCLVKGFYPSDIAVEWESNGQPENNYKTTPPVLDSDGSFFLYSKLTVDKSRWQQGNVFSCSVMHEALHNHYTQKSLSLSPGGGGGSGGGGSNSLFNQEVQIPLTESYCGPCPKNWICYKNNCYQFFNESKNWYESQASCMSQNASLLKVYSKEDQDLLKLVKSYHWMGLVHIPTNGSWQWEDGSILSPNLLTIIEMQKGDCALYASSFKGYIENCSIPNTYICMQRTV
- protocol_summary: SPR Biacore; IgG captured by anti-Fab, antigen analyte
measurement_label: kon (M⁻¹ s⁻¹)
Entry rule: numbers only, all in M⁻¹ s⁻¹.

Solved entries (count: 2):
anti-NKG2D antibody clone 013 (antibody, V domains shown, From transgenic rabbits) VH: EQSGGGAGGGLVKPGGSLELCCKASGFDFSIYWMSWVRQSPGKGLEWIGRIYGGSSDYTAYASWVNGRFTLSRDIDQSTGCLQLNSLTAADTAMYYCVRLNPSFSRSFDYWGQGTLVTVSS VL: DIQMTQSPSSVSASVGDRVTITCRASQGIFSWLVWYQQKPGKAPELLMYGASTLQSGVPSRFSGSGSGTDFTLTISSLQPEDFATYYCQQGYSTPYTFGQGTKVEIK | 81000
anti-NKG2D antibody clone 230 (antibody, V domains shown, From transgenic rabbits) VH: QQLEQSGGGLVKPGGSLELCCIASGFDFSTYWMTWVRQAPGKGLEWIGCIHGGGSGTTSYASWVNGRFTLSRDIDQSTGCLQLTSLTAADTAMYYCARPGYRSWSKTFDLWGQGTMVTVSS VL: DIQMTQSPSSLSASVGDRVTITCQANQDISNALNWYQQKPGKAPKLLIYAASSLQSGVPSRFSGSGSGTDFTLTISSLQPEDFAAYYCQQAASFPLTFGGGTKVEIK | 40000

Kindly consider the entry below.
q: # get_value(readout='kon', item= anti-NKG2D antibody clone 320 (antibody, V domains shown, From transgenic rabbits; also called 320 IgG) VH: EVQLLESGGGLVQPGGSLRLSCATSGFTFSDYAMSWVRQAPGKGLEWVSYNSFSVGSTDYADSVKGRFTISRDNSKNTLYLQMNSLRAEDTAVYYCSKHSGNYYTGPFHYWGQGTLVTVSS VL: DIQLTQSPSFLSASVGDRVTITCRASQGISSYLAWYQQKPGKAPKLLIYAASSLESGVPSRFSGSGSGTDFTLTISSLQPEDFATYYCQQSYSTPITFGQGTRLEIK )
a: 78000
